Attribution: paper PMC10716038

Molecular target: T1, THD1 I396A (UniProt P26039 1-405, I396A)
T1 construct: talin-1 (TLN1) head domain, residues 1-405, I396A; source: E. coli (DE3) Rosetta 2, purified (IMAC, SEC); not shown: His10-SUMO, N-terminal, cleaved
T1 sequence (P26039 1-405 I396A): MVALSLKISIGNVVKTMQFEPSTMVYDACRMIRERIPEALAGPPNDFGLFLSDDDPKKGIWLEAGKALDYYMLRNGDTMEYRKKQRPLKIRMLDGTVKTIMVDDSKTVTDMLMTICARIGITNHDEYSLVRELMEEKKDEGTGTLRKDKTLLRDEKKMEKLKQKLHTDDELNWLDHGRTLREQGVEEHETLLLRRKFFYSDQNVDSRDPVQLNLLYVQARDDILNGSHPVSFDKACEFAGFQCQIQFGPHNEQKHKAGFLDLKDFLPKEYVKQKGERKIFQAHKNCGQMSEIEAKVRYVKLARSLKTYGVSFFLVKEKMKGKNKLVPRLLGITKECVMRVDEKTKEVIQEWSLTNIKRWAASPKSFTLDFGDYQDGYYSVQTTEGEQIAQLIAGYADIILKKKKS
Assay: MST; unlabelled protein titrated to 50-200 nM ATTO 488-labelled β-CT peptide, no third protein; 20 mM Tris pH 7.5, 200 mM NaCl, 1 mM TCEP, 0.05% Tween-20; Kd of individual titrations (in S0002 mean and sd, n = 2)
Settings: both partners purified
No end group written: not given here.
measurement label: pKd
# log scale: pKd equals minus log10 of the concentration in mol/L

**Q:** For {ATTO 488}-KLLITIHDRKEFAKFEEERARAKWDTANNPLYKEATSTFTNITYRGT (peptide, UniProt O54890 741-787, looked up, integrin β3 cytoplasmic tail (β3-CT); source: synthetic peptide (MPIB Core Facility)) [ATTO 488-labeled integrin β3 cytoplasmic tail (488–β3-CT)] , what is its reported pKd?
**A:** 3.24
